biological target: CGRP receptors (Homo sapiens, UniProt O60894+Q16602); construct: SK-N-MC cells (ATCC No. HTB-10) were homogenized in 50 mM Hepes buffer; host or cells: SK-N-MC human neuroblastoma cells; assay: Binding to membranes from SK-N-MC cells (CGRP receptors), displacement of [125I]human-CGRP; conditions: read-out: Receptor IC50 in nM [mean ± SEM (n)] CGRP
Sequence (Q16602 23-461): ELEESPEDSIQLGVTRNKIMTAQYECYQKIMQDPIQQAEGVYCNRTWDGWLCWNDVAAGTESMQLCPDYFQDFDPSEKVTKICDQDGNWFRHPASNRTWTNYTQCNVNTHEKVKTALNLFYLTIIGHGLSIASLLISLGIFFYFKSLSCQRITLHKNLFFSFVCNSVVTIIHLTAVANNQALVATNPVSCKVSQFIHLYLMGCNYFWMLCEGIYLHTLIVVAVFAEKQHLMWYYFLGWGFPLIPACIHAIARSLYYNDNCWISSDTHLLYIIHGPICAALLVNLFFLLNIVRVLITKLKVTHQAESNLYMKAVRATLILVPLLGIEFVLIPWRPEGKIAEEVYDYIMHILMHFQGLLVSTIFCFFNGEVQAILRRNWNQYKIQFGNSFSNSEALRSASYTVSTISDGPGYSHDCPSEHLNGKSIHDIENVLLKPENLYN
Sequence (O60894 27-148 partner): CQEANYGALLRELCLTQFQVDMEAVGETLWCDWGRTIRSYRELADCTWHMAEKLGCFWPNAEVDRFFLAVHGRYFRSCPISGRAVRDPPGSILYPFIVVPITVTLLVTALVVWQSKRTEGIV
Quick list: IC50 per entry.

LSTAVLGRLSQELHRLQTYPRTNTGSNTY [Compound 6] | > 10000 nM

Okay, next one:
Request: Supply IC50 value. Item: LSTSVLGRLSQELHRLQTYPRTNTGSNTY [Compound 3]
Response: > 10000 nM

Just for reference, patent US6936584B1 is where these values come from.
